B1: TPR t1 (parent)
chain: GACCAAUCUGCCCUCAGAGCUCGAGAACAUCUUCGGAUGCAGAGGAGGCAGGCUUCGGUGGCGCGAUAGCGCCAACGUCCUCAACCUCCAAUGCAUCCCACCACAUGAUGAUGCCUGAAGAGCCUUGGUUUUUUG

Variants of: B1
Test: polymerase ribozyme fitness, log enrichment relative to wild type (log ratio); higher = more active; in vitro selection for triplet polymerase activity
Recorded metric: polymerase ribozyme fitness (log ratio)

Would you please look over these solved cases?
INSERT INTO assay_data (sequence_text, recorded_metric, val) VALUES
  ('GACCAAUCUGCCCUCAGAGCUCGAGAACAUCUUCGGAUGCAGAGGAGGCAGGCUUCGGUCGCGCGAUAGCGCCAACGUCCUCAACCUCCAAUGCAUCCCACCACAUGAUCAUGCCUGAAGAGCCUUGGUUUUUUG', 'polymerase ribozyme fitness (log ratio)', -4.39),
  ('GACCAAUCUGCCCUCAGAGCUCGAGAACAUCUUCGGAUGCAGAGGUGGCAGUCUUCGGUGGCGCGAUAGCGCCAACGUCCUCAACCUCCAAUGCAUCCCACCACAUGAUGAUGCCUGAAGAGACUUGGUUUUUUG', 'polymerase ribozyme fitness (log ratio)', -3.01),
  ('GACCAAUCUGCCCUCAGAGCUCGAGAACAUCUUCGGAUGCAGAGGAGGCAGGCUUCGGUGGCGCGAUAGCGCCAACGUCCUCAACCUACAAUGCAUCCCAUCACAUGAUGUUGCCUGAAGAGCCUUGGUUUUUUG', 'polymerase ribozyme fitness (log ratio)', -3.57),
  ('GACCAAGCUGCCCUCAGAGCUCGAGAACAUCUUCGGAUGCAGAGGAGGCAGGCUUCGGUGGCGCGAUAGGGCCAACGUCCUCAACCUCCAAUGCAUCCCACUACAAGAUGAUGCCUGAAGAGCCUUGGUUUUUUG', 'polymerase ribozyme fitness (log ratio)', -4.46),
  ('GACCAAUCUGCCCUCAGAGCUCGAGAACAUCUUCGGAUGCAGAGGAGGCAGGCUUCGGUGGCGCGAUAGCUCCAACGUCCUCAACCUCCAAUGCAUCCCACCACAUGAUGACGCCUGAAGAGCCUUGGUUUUUUG', 'polymerase ribozyme fitness (log ratio)', 1.34),
  ('GACCAAUCUGCCCUCAGAGCUCGAGAACAUCUUCGGAUGCAGAGGUGGCAGGCUUCGGUGGCGCGAUAGCGCCAACGUCCUCAACCUCCAAUGCAUCCCACCACAUGAUGAUGCCUAAAGAGCCUUGGUUUUGUG', 'polymerase ribozyme fitness (log ratio)', -2.73),
  ('GACCAAUCUGCCCUCAGAGCUCGAGAACAUCUUCGGAUGCAGAGGAGGCAGGCUUCGGUGGCGCGAUAGCCCCAACGUCCUCAACCUCCAAUUCAUCCCACCAUAUGAUGAUGCCUGAGGAGCCUUGGUUUUUUG', 'polymerase ribozyme fitness (log ratio)', -1.16),
  ('GACCAAUCUGCCCUCAGAGCUCGAGAACAUCUUCCGAUGCAGAGGAGGCAGGCUUCGGUGGCGCGAUAGCGCCAACGUCCUCAACCACCAAUGCAUCCCACCACAUGAUGAUGCCUGAAGAGCCUUGGUUUUUUG', 'polymerase ribozyme fitness (log ratio)', -5.04);

What polymerase ribozyme fitness (log ratio) value was documented for this variant, `GACCAAUCUGCCCUCAGAGCUCGAGAACAUCUUCGGAUGCGGAGGAGGCAGGCUUCGGUGGCGCGAUGGCGCCAACGUCCUCAACCUCCAAUGCAUCCCACCACAUGAUGAUGCCUGAAGAGCCUUGGUUUUUUG` ? -3.96

What polymerase ribozyme fitness (log ratio) value was documented for this variant, `GACUAAUCUGCCCUCAGAGCUCGAGAACAUCUUCGGAUGCAGAGGAGUCAGUCUUCGGUGGCGCGAUAGCGCCAACGUCCUCAACCUCCUAUGCAUCCCACCACAUGAUGAUGCCUGAAGAGCGUUGGUUUUUUG` ? -1.92

What polymerase ribozyme fitness (log ratio) value was documented for this variant, `GACCAAUCUGCCCUCAGAGCUCGAGAACAUCUUCGGAUGCAGAGGAGGCAGGCUUCGGUGGCGCGAUAGCGCCAACGUCCUCAACCUCCAAUGCAUCCCAUCACAUGAUGAUGCCUGAAGGGCCUUGGUUUUUUG` ? 1.57

What polymerase ribozyme fitness (log ratio) value was documented for this variant, `GACCAAUCAGACCUCAGAGCUCGAGAACAUCUUCGGAUGCAGAGGAGGCAGGCUUCGGUGGCGCGAUAGUGCCAACGUCCUCAAUCUCCAAUGCAUCCCACCACAUGAUGAUGCCUGAAGAGCCUUGGUUUUUUG` ? -1.15

What polymerase ribozyme fitness (log ratio) value was documented for this variant, `GACCAAUCUGCCCUCAGAGCUCGAGAACAUCUUCGGUUGCAGAGGAGGCAGGCUUCGGUGGCGCGAUAGCGCCCACGUCCUCUACCUCCAAUGCAUCCCACCACAUGAUGAUGCCUUAAGAGCCUUGGUUUUUUG` ? -3.26

What polymerase ribozyme fitness (log ratio) value was documented for this variant, `GACCAAUCUGCCCUCAGUGCUCGAGAACAUCUUCGGAUGCAGAUGAGGCAGGCUUCGGUGGCGCGAUAGCGCCAACGUCCUCAACCUCCAAUGCAUCCCACCACAUGAUAAUGCCUGAAGAGCCUUGGUUUUUUG` ? -5.32

What polymerase ribozyme fitness (log ratio) value was documented for this variant, `GACCAAUCUGCACUCAGAGCUCGAGAACAUCUUCGGAUGCAGAGGAGGCAGGCUUCUGUGUCGCGAUAGCGCCAACGUCCUCAACCUCGAAUGCAUCCCACCACAUGAUGAUGCCUGAAGAGCCUUGGUUUUUUG` ? -5.96

What polymerase ribozyme fitness (log ratio) value was documented for this variant, `GACCAAUCUGCCCUCAGAGCUCGAGAACAUCUUCGGAUGCAGAGGAGGCAGGCUUCGGUGGCGCGAUAGCGCCAACGUCCUCAACCUCCAAUGCAUCCUACCACAUGAUGAUGCCUGAAGAUCCUUGGUUUUUUG` ? -3.2

What polymerase ribozyme fitness (log ratio) value was documented for this variant, `GACCAAUCUGCCCUCAGAGCUCGAGAACAUCUUCGGAUGCAGAUGAGGCAGGCUUCGGUAGCGCGAUAGCGCCAACGUCCUCAACCUCCAAUGCAUCCCACCACAUGAUGAUGCCUGAAGAGCCUUGGUUUUUUG` ? -0.946
